# assay.system: Gag-Pol polyprotein (Human immunodeficiency virus type 1 group M subtype B (isolate HXB2)) (UniProt P04585)
# experimental.protocol: RNase H inhibition, HIV 1 Gag Pol polyprotein, FRET biochemical assay, screening (AID 372)
# condition.parameters: HIV-1 RT RNase H, FRET RNA/DNA substrate fluorescence
Here the recorded IC50 is given for each entry.
assay.endpoint: IC50

{"columns": ["substance.smiles", "reported.value"],
 "data": [
  ["COc1ccc(-c2c(C#N)c(N)nc(SCC(=O)c3ccc(O)c(O)c3)c2C#N)cc1", "1.8 µM"],
  ["Cc1ccc(C=C2C(=O)NC(=S)N(c3ccccc3Cl)C2=O)o1", "8 µM"],
  ["O=C(Oc1ccccc1)Oc1c(Cl)cc2oc(=O)sc2c1Cl", "19 µM"],
  ["O=C1NC(=S)N(c2ccc(Cl)cc2)C(=O)/C1=C\\C=C\\c1ccccc1[N+](=O)[O-]", "3.3 µM"],
  ["COc1ccc(NC(=O)c2c(N)sc(-c3ccccc3)c2C)cc1", "7 µM"],
  ["Cc1cc(C(=O)O)ccc1-n1c(C)ccc1C", "100 µM"],
  ["O=C1NN(c2ccc(I)cc2)C(=O)/C1=C\\c1ccc(O)c(O)c1", "10.8 µM"],
  ["O=C1C(Cl)=C(NC(=O)c2ccccc2)C(=O)C(Cl)=C1NC(=O)c1ccccc1", "4 µM"],
  ["Cc1ccc(-c2n[nH]c(=S)n2/N=C/c2ccc(O)c(O)c2O)cc1", "1.8 µM"],
  ["O=C1NC(=S)N(c2ccccc2F)C(=O)/C1=C/c1ccc(I)o1", "6.7 µM"]
]}

----------
# assay.system: Gag-Pol polyprotein (Human immunodeficiency virus type 1 group M subtype B (isolate HXB2))
# experimental.protocol: RNase H inhibition, HIV 1 Gag Pol polyprotein, FRET biochemical assay, screening (AID 372)
# condition.parameters: HIV-1 RT RNase H, FRET RNA/DNA substrate fluorescence
Activity calls are given as the source filed them. No stated cut-off is given here; in the data, active means inhibition above about 50%; inactive means the rest.
Outcomes: class 1 = active, class 0 = inactive

{"columns": ["compound", "class.label"],
 "data": [
  ["COc1ccc2oc(=O)c(-c3csc(Nc4ccc(Br)cc4)n3)cc2c1", "class 1"],
  ["O=C1NC(=S)N(c2cccc(Cl)c2)C(=O)/C1=C\\C=C\\c1ccco1", "class 1"],
  ["Cc1ccc(C(=O)Nc2sc(C)c(C)c2C(N)=O)cc1", "class 1"],
  ["COc1ccccc1N=C(NOCc1ccc(Cl)cc1Cl)c1nonc1N", "class 1"],
  ["O=C1/C(=C/c2ccco2)C(=O)N(c2ccc(Br)cc2)C(=S)N1c1ccccc1", "class 1"],
  ["O=C(NC(=S)Nc1cc(-c2nc3ccccc3s2)ccc1Cl)c1ccc(F)cc1", "class 1"],
  ["Cc1onc(-c2ccccc2)c1C(=O)Nc1sc(C)c(C)c1C(N)=O", "class 0"],
  ["O=C1C(Cl)=CC(=NS(=O)(=O)c2ccccc2)C=C1Cl", "class 1"],
  ["O=C1c2ccccc2C(=O)N1c1ccc(-c2nc3ccc(N4C(=O)c5ccccc5C4=O)cc3[nH]2)cc1", "class 1"],
  ["Cc1cccc(NCC(=O)N/N=C\\c2c(Br)cc(Br)c(O)c2Br)c1", "class 1"],
  ["COc1cc(/C=N\\c2sc3c(c2C(=O)NCc2ccccc2)CCCC3)cc(Cl)c1O", "class 1"],
  ["C=CCn1c(N)c(-c2nc3ccccc3[nH]2)sc1=S", "class 1"],
  ["Cc1sc2nc(-c3ccc([N+](=O)[O-])cc3)[nH]c(=O)c2c1C", "class 1"],
  ["O=C1C=CC(=O)C(c2cc(Cl)ccc2Cl)=C1", "class 1"],
  ["Cc1cc(I)c2c(c1)C1C=CCC1C(C(=O)O)N2 (stereo not drawn)", "class 1"],
  ["Cc1sc(NC(=O)c2ccc(Br)o2)c(C(N)=O)c1C", "class 1"],
  ["COc1ccc(-c2nc3sc(-c4ccc(OC)cc4)nc3s2)cc1", "class 1"],
  ["Cc1ccc(C)n1-c1ccc(Br)cc1C(=O)O", "class 1"],
  ["Cc1cc(Br)ccc1N1C(=O)/C(=C/c2ccco2)C(=O)NC1=S", "class 1"],
  ["CCOc1cccc(N2C(=O)/C(=C/c3cn(CC(=O)OC)c4ccccc34)C(=O)NC2=S)c1", "class 1"],
  ["CCN1C(=O)/C(=C/c2ccoc2)C(=O)NC1=S", "class 1"],
  ["Cc1ccc(S(=O)(=O)N=C2C=C(Cl)C(=O)C(Br)=C2)cc1", "class 1"],
  ["NC(=O)c1c(NC(=O)CCc2ccccc2)sc2c1CCCCCC2", "class 1"],
  ["O=C1/C(=C\\c2ccc(O)c(O)c2)SC(=S)N1c1cccc(Cl)c1", "class 1"],
  ["O=C1C(Cl)=C/C(=N\\S(=O)(=O)c2ccc(Cl)cc2)C(Cl)=C1Cl", "class 1"],
  ["Cc1nn(CC(=O)Nc2sc(C)c(C)c2C(N)=O)c(C)c1[N+](=O)[O-]", "class 1"],
  ["N#C/C(=C\\Nc1ccc(S(=O)(=O)Nc2nccs2)cc1)c1nc(-c2ccc(Cl)cc2)cs1", "class 1"],
  ["COc1ccc(N2C(=O)/C(=C\\c3cn(CC(=O)Nc4ccccc4)c4ccccc34)C(=O)NC2=S)cc1", "class 1"],
  ["NC(=O)c1c(N)sc2c1CCCCC2", "class 1"],
  ["O=C1CC(=O)c2ccc3c4c(ccc1c24)C(=O)CC3=O", "class 1"],
  ["C=CCN1C(=O)/C(=C\\c2ccc([N+](=O)[O-])o2)C(=O)NC1=S", "class 1"],
  ["O=C(O)C1Nc2c(Cl)cc(Cl)cc2C2C=CCC12 (stereo not drawn)", "class 1"],
  ["O=C1NC(=S)N(c2ccc(Cl)cc2)C(=O)/C1=C/c1ccc(Br)o1", "class 1"],
  ["O=C(N/N=C/c1ccccc1Cl)c1cc(O)c(O)c(O)c1", "class 1"],
  ["O=C1NC(=S)N(c2ccccc2F)C(=O)/C1=C/c1ccc(OCc2cccc(C(=O)O)c2)cc1", "class 1"],
  ["Oc1c(Br)cc(/C=N/Nc2nnc3c(n2)[nH]c2ccccc23)c(Br)c1O", "class 1"],
  ["Cc1ccc(C(=O)NC(=S)Nc2ccc(-c3nc4ccccc4s3)cc2)cc1[N+](=O)[O-]", "class 1"],
  ["Nc1ccc(S(=O)(=O)O)c2cccc(O)c12", "class 1"],
  ["O=C(N/N=C/c1ccc(/C=N/NC(=O)c2ccc(O)c(O)c2)cc1)c1ccc(O)c(O)c1", "class 1"],
  ["Cc1sc(NC(=O)c2ccco2)c(C(N)=O)c1C", "class 1"],
  ["COc1ccc(/C=C\\C(=O)c2c(-c3ccccc3)c3cc(C)ccc3[nH]c2=O)c(OC)c1", "class 1"],
  ["O=C1/C(=C/c2ccc(O)c(O)c2)SC(=S)N1c1ccc(O)cc1", "class 1"],
  ["CCOc1ccc(NC(=O)c2c(NC(=O)c3ccccc3)sc3c2CCCCC3)cc1", "class 0"]
]}

Origin of values: PubChem BioAssay AID372
